Where do these numbers come from? They come from patent US20160052926A1.

MEASURED_ON: Recombinant human FGFR2 (Homo sapiens, UniProt P21802)
Sequence (P21802 22-821): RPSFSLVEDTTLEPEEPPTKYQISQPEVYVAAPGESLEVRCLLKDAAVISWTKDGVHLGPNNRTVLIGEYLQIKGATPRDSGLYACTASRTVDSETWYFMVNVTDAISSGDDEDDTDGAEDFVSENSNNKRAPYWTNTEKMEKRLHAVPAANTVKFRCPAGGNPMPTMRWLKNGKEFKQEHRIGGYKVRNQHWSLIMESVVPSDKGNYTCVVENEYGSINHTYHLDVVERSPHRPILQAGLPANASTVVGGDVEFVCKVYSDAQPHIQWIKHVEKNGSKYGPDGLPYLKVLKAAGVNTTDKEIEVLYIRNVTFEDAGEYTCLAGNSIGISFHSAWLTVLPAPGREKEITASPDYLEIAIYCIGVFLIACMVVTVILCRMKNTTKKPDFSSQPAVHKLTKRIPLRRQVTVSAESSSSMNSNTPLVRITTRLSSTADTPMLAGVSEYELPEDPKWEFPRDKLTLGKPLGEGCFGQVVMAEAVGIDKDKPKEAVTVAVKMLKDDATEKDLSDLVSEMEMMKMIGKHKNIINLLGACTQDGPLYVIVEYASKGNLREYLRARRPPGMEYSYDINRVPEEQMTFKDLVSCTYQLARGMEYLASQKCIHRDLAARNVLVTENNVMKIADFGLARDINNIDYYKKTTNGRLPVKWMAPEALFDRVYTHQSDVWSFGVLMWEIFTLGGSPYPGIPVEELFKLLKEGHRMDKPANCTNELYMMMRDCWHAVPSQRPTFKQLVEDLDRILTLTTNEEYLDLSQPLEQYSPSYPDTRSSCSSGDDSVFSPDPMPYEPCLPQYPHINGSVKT
ASSAY_METHOD_TEXT: Transcreener Kinase Assay of FGFR2
Format: biochemical
TEST_SETTINGS: read-out: FGFR2 (FP) IC50
Strictly below 9 nM in IC50: 1. Otherwise: 0.

QUERY_SMILES: CCN1CCC(n2cc(Nc3ncc(CCc4cc(C(=O)NC)cc(OC)c4Cl)cn3)cn2)CC1
ASSIGNED_CATEGORY: 0
--
QUERY_SMILES: CCn1cc(Nc2ccc(OCc3cc(C(=O)NC)cc(OC)c3F)cn2)cn1
ASSIGNED_CATEGORY: 0
--
QUERY_SMILES: CNC(=O)c1cc(CCc2cnc(Nc3c(C)nn(C)c3C)nc2)c(F)c(OC)c1
ASSIGNED_CATEGORY: 0
--
QUERY_SMILES: CCN(CC)CCCn1cc(Nc2ncc(CCc3cc(C(=O)NC)cc(OC)c3Cl)cn2)cn1
ASSIGNED_CATEGORY: 1
--
QUERY_SMILES: CCn1cc(Nc2ncc(OCc3c(F)c(OC)cc(C(=O)NC)c3F)cn2)cn1
ASSIGNED_CATEGORY: 1
--
QUERY_SMILES: CNC(=O)c1cc(CCc2cnc(Nc3cnn(-c4ccc(C)nc4)c3)nc2)c(F)c(OC)c1
ASSIGNED_CATEGORY: 1
--
QUERY_SMILES: CCN1CCN(c2ccc(Nc3ncc(CCc4cc(C(=O)NOC)cc(OC)c4C)cn3)cc2)CC1
ASSIGNED_CATEGORY: 1
